# tested_system: DGKα (Homo sapiens (Human), UniProt P23743)
# Sequence (P23743 whole entry, looked up): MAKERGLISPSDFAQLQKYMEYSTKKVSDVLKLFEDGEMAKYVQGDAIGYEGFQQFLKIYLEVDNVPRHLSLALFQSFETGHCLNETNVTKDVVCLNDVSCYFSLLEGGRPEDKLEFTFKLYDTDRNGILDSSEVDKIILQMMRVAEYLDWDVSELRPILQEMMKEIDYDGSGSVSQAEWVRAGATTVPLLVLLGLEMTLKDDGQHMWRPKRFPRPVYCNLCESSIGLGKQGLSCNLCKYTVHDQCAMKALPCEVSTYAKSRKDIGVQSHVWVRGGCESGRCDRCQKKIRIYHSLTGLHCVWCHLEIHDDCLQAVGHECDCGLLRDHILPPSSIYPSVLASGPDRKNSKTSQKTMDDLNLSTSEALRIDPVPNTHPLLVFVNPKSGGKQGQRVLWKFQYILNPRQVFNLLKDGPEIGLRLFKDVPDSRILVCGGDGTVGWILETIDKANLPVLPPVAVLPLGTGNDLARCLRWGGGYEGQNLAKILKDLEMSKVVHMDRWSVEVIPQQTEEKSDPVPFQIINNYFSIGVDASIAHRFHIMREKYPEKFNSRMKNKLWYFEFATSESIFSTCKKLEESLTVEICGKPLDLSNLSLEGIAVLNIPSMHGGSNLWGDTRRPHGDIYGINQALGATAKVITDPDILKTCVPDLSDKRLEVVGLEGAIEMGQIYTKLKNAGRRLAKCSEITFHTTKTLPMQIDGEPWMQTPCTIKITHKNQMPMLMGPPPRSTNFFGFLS
# assay_overview: biochemical
# Format: biochemical
# reported_conditions: liposome (LIPGLO) assay; read-out: DGKα LIPGLO IC50
Attribute: IC50
quantity_kind: IC50 (nM)

In [3]: df
Out[3]:
                      smiles_representation  quantity_kind  assay_result
0  Cn1c(=O)c(C#N)c(N2CCC(Oc3cccc(C(F)(F)F)c3)CC2)c2nc(Cl)ccc21           IC50          2000
1  Cn1c(=O)c(C#N)c(N2CCC(Oc3ccc(C#N)c(Cl)c3)CC2)c2nc(Cl)ccc21           IC50          1800
2  Cc1ccc(OC2CCN(c3c(C#N)c(=O)n(C)c4ccc(Cl)nc34)CC2)cc1Cl           IC50           740
3  Cn1c(=O)c(C#N)c(N2CCC(Oc3ccc(F)c(F)c3)CC2)c2nc(Cl)ccc21           IC50          3200

====

Attribute: IC50
# tested_system: human DGKζ (Homo sapiens (Human))
# Sequence (Q13574 whole entry, looked up): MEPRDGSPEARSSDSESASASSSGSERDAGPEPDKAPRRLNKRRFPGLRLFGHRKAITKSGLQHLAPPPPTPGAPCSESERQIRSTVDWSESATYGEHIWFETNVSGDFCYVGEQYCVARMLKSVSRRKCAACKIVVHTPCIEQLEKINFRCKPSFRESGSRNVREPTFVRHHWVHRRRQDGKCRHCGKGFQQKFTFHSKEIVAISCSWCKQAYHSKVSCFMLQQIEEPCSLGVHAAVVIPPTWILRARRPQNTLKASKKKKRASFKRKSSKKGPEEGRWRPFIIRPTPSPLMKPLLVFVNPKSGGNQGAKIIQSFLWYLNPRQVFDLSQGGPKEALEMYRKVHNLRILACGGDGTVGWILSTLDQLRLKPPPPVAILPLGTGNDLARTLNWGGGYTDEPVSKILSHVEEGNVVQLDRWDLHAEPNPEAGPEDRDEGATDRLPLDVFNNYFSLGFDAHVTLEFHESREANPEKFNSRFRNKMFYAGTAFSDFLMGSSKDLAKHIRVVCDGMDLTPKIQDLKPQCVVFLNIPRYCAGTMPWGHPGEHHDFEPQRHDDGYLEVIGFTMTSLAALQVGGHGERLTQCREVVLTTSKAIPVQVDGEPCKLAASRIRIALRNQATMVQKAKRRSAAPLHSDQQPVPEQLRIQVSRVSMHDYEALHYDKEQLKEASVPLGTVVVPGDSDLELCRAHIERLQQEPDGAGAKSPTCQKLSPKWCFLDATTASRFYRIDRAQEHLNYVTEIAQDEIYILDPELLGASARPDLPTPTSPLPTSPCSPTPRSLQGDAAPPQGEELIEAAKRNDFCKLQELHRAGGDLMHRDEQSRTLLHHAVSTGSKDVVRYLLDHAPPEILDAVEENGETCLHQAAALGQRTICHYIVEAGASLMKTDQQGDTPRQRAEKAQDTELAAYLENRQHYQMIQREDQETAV
# assay_overview: biochemical
# Assay type: biochemical
# reported_conditions: liposome (LIPGLO) assay; read-out: DGKζ LIPGLO IC50
quantity_kind: IC50 (µM)

>>> print(df.to_string())
                                   compound   u  assay_result
0  Cn1c(=O)cc(N2CCC(Oc3ccc(Cc4ccccc4)cc3)CC2)c2nc(C#N)ccc21  µM           3.8
1  Cc1ccc(OC2CCN(c3c(C#N)c(=O)n(C)c4ccc(Cl)nc34)CC2)cc1  µM           7.8
2  CC(C)c1ccc(O[C@H]2CCN(c3cc(=O)n(C)c4ccc(C#N)nc34)C[C@H]2C)cc1 (single isomer, unassigned) [Example 178]  µM          0.53
3  Cc1cc(OC2CCN(c3cc(=O)n(C)c4ccc(C#N)nc34)CC2)nc(C(C)C)n1  µM            16
4  Cc1ccc(O[C@@H]2CCN(c3cc(=O)n(C)c4ccc(C#N)nc34)C[C@H]2C)cc1 [Example 119]  µM            20
5  C[C@@H]1CN(c2cc(=O)n(C)c3ccc(C#N)nc23)CC[C@@H]1Oc1cccc(C2CC2)c1 [Example 179]  µM           1.2
6  Cn1c(=O)c(C#N)c(N2CCC(Oc3ccccc3OC(F)(F)F)CC2)c2nc(Cl)ccc21  µM           240
7  CC(C)c1ccc(OC2CCN(c3c(C#N)c(=O)n(C)c4ccc(Cl)nc34)CC2)cc1  µM           240

====

Attribute: IC50
# tested_system: Human DGKα(9-727) (Homo sapiens (Human))
# assay_overview: biochemical
# reported_conditions: read-out: DGKα
quantity_kind: IC50 (nM)

>>> df
                                   molecule  assay_result
0  Cn1c(=O)cc(N2CC[C@H](Oc3cccc(C(F)(F)F)c3)[C@@H](O)C2)c2nc(C#N)ccc21 (racemic)          1900
1  CC1CN(c2cc(=O)n(C)c3ccc(C#N)nc23)CCC1N(C)C(=O)c1ccc(F)cc1 (single isomer, unassigned)          3200
